- Experimental target: EGFR (L858R T790M C797S) (Homo sapiens, UniProt P00533, C797S/L858R/T790M)
- Construct: purchased SignalChem E10-122VG
- Sequence (P00533 25-1210 T790M/C797S/L858R): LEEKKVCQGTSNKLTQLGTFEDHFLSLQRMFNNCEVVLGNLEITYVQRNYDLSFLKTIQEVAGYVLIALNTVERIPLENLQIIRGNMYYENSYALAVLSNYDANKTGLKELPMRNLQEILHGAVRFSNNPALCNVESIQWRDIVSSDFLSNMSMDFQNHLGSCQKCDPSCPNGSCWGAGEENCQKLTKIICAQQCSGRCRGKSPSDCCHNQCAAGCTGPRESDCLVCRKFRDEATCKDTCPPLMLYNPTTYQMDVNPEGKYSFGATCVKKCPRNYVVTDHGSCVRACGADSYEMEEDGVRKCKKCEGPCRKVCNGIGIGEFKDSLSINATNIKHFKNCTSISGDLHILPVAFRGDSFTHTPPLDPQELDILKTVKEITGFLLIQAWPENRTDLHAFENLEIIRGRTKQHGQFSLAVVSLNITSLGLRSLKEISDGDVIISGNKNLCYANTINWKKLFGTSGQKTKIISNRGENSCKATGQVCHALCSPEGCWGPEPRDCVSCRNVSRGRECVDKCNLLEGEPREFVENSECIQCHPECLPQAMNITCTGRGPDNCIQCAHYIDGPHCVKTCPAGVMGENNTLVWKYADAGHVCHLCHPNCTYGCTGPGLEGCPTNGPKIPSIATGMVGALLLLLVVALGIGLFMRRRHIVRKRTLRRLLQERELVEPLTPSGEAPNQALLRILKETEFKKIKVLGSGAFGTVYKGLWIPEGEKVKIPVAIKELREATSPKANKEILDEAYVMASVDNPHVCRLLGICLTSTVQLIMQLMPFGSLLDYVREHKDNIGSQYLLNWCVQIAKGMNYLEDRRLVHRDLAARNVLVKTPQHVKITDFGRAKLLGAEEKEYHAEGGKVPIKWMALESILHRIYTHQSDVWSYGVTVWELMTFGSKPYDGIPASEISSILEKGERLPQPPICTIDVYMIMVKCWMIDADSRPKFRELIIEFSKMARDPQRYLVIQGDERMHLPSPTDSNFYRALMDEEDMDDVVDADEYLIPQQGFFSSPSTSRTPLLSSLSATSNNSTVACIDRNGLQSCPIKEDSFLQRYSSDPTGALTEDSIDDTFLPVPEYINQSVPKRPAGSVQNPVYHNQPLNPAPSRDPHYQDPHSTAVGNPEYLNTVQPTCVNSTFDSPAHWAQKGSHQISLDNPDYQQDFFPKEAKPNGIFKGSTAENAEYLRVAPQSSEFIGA
- Procedure summary: Biochemical EGFR inhibition assay (Caliper mobility shift), EGFR LRTMCS
- Conditions: LRTMCS (PH) IC50 (nM) @ 1 mM ATP (Num), EGFR LRTMCS mutant
Measurement kind: IC50

{"Compound": "CO[C@H]1CCN(c2nccc(Nc3cc4c(C(C)C)cnc(N5CC[C@H]5CN)c4cn3)n2)C[C@H]1F", "Value measured": "< 15 nM"}
{"Compound": "Cc1nc(-c2ccc(C(C)C)c3cc(Nc4ccnc(N5CC[C@@H](O)[C@@](C)(F)C5)n4)ncc23)n[nH]1", "Value measured": "< 15 nM"}
{"Compound": "CC(C)c1cnc(N2CC3(CCS3(=O)=O)C2)c2cnc(Nc3ccnc(N4CC[C@@](C)(O)[C@@H](F)C4)n3)cc12 (single isomer, unassigned) [Example 174]", "Value measured": "20 to 30 nM"}

Values from patent US20240382483A1
